assayMethodText: stimulators of nuclear beta-catenin in C2C12, primary screen, imaging, WNT3A-conditioned medium, mouse C2C12, NPC library (AID 1117326)
conditionNotes: stimulation, at 2 µM, stronger effect = higher value
recordedMetric: nuclear beta-catenin stimulation (%)

INSERT INTO assay_data (compound, valuereported) VALUES
  ('CO[C@@]1(NC(=O)Cc2cccs2)C(=O)N2C(C(=O)O)=C(COC(N)=O)CS[C@@H]21', -0.5),
  ('CCC(=O)Oc1ccc2c(c1)CC[C@@H]1[C@H]2CC[C@]2(C)[C@@H](OC(=O)CC)CC[C@@H]12', 0.2),
  ('CN(C)c1ccc(O)c2c1C[C@H]1C[C@H]3[C@H](N(C)C)C(=O)C(C(N)=O)=C(O)[C@@]3(O)C(=O)C1=C2O', 6.6),
  ('Cc1cccc(OCC(O)CNC(C)(C)C)c1C (stereo not drawn)', 0.2),
  ('CCCC(=O)O[C@]1(C(=O)COC(=O)CC)CC[C@H]2[C@@H]3CCC4=CC(=O)CC[C@]4(C)[C@H]3[C@@H](O)C[C@@]21C', -2.3),
  ('N/C(=N\N=C\c1ccc(Cl)cc1)N/N=C/c1ccc(Cl)cc1', 0.1),
  ('NC(=O)NC1N=C([O][Al])NC1=O (stereo not drawn)', -0.2),
  ('CCOC(=O)NNc1ccc(N(CC)CC(C)O)nn1 (stereo not drawn)', 0.1),
  ('CCCCCCCCCCCCCC[N+](C)(C)C', 7.5),
  ('Nc1ccc(S(=O)(=O)Nc2ccccc2)cc1', 0.9),
  ('CCOc1ccc(S(=O)(=O)O)c2cccnc12', 0.5),
  ('Oc1ccc(CCNCCCCCCNCCc2ccccc2)cc1O', 0.9),
  ('Cc1cc(OCCOCC[N+](C)(C)Cc2ccccc2)ccc1C(C)(C)CC(C)(C)C', 6.8),
  ('Cc1oc(=O)oc1COC(=O)[C@@H]1N2C(=O)[C@@H](NC(=O)[C@H](N)c3ccccc3)[C@H]2SC1(C)C', 1.3),
  ('COc1cc2c(cc1OC)C(=O)CC2', 2),
  ('CCOC(=O)C1=C(COCCN)NC(C)=C(C(=O)OC)C1c1ccccc1Cl (stereo not drawn)', 10),
  ('CCCN(CCC)S(=O)(=O)c1ccc(C(=O)O)cc1', -0.2),
  ('CN(C)CCCN1c2ccccc2CCc2ccccc21', -0.2),
  ('CC(C)(C)C(=O)OCOC(=O)C1N2C(=O)CC2S(=O)(=O)C1(C)C (stereo not drawn)', 1),
  ('CC(NN)c1ccccc1 (stereo not drawn)', -2.2),
  ('Nc1ncnc(Nc2ccccc2)n1', 0.6),
  ('O=C1CCC(N2C(=O)c3ccccc3C2=O)C(=O)N1 (stereo not drawn)', 2.1),
  ('CCCCC(CC)COC(=O)c1ccc(N(C)C)cc1 (stereo not drawn)', 0.5);

* * *

assayMethodText: kinase inhibitors altering Pseudomonas killing of worms, whole organism (AID 651566);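 further: tested at 14 µM; sign flipped so higher z means a lower ratio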
conditionNotes: C. elegans killed by P. aeruginosa, survival ratio
Below, each entry is listed with its recorded z-score.
recordedMetric: z-score

INSERT INTO assay_data (compound, valuereported) VALUES
  ('CC1=C(C(=O)Nc2ccc3[nH]ncc3c2)C(c2ccc(F)cc2)N=C(c2ccc(C(F)(F)F)nc2)N1 (stereo unspecified)', 0.02),
  ('O=C(NC1NNC2CC(c3ccccc3)CCC21)C1CC1 (stereo unspecified)', -1.73),
  ('COc1ccc(CNC(=O)c2ccc(-c3cc(-c4nnc(C)o4)ccc3C)cc2)cc1', 1.23),
  ('N#Cc1c(NC(=O)c2ccccc2F)sc2c1CCCC2', 0.24),
  ('Nc1ncnc2occ(-c3ccc(NC(=O)Nc4cc(C(F)(F)F)cc(C(F)(F)F)c4)cc3)c12', -0.205),
  ('COc1ccc2cc(-c3c(-c4ccncc4)nc(-c4ccc(S(C)(=O)=O)cc4C)n3C)ccc2c1', 1.57),
  ('CCOc1ccc2c(-c3ccnc(Nc4cccc(C(F)(F)F)c4)n3)cnn2n1', 0.335),
  ('COc1cccc(-n2cnc3c(N/N=C/c4ccncc4)ncnc32)c1', -1.34),
  ('COc1cc2c(cc1Nc1nc(Nc3cccc(F)c3C(N)=O)c3cc[nH]c3n1)N(C(=O)CN1CCN(C(C)C)CC1)CC2', 0.095),
  ('Cn1c(-c2nonc2N)nc2cnccc21', -0.36),
  ('COc1cccc(-n2ncc3c(N/N=C/c4ccc(C(=O)NCCN(C)C)cc4)ncnc32)c1', -0.295),
  ('CC1=C(C(=O)Nc2ccc3[nH]ncc3c2)C(c2ccc3ccccc3c2)CC(=O)N1 (stereo unspecified)', -0.24),
  ('CCCNc1cccc(-n2ncc3c(N/N=C/c4ccncc4)ncnc32)c1', 0.37),
  ('CN(C)c1cc2c(Nc3ccc4c(cnn4Cc4ccccc4)c3)ncnc2cn1', 0.66),
  ('COc1cccc(-n2ncc3c(N/N=C/c4cccc(F)c4)ncnc32)c1', -0.05),
  ('O=C(Nc1n[nH]c2nc(-c3ccc(O)cc3)c(Br)cc12)C1CC1', 0.105),
  ('O=S(=O)(CCOCc1ccc(-c2ccc3ncnc(Nc4ccc(OCc5cccc(F)c5)c(Cl)c4)c3c2)o1)c1ccccc1', -1.41),
  ('Cc1cccc(Oc2nccc(-c3c(-c4ccc(F)cc4)ncn3C3CCNCC3)n2)c1C', -0.775),
  ('NS(=O)(=O)c1cccc(-c2cc3ccncc3cc2OCc2ccccc2)c1', 1.48),
  ('Cc1ccc(O)cc1Nc1ccnc2ccc(S(C)(=O)=O)cc12', 0.285),
  ('CNC(=O)c1ncccc1Nc1nc(Nc2cc3c(cc2OC)CCCN3C(=O)CN(C)C)nc2[nH]ccc12', 0.02),
  ('Cc1c2ccc(N(C)c3ccnc(Nc4cccc(S(N)(=O)=O)c4)n3)cc2nn1C', 1),
  ('CCn1c(-c2nonc2N)nc2cncc(C(=O)NCCNC)c21', 0.43),
  ('Nc1ncnc2occ(-c3ccc(NC(=O)Nc4cccc(C(F)(F)F)c4)cc3)c12', -0.335),
  ('O=C(O[C@H]1CN[C@H](C#Cc2cc3ncnc(Nc4ccc(Cc5ccccc5)cc4)c3s2)C1)N1CCOCC1', -0.335),
  ('COc1ccc(-c2cc3c(N)ncnc3o2)cc1', 0.775),
  ('CCn1c(-c2nonc2N)nc2c(N3CCCC3)nccc21', -0.89),
  ('Cc1ccc2[nH]c(O)c(N=Nc3ccc(S(N)(=O)=O)cc3)c2c1', -0.295),
  ('CNC(=O)c1cncc(/C=C/c2ccccc2Cl)c1', -0.36),
  ('CC(=O)Nc1cccc(C#Cc2cncnc2Nc2ccc(OCc3cccc(F)c3)c(Cl)c2)c1', 0.045),
  ('CCn1c(-c2nonc2N)nc2c(C#CC(C)(C)O)ncc(OC[C@@H]3CCCN3)c21', -0.14),
  ('Cc1nc(-c2ccccc2)n2nc(NCCCN3CCOCC3)ncc12', -0.095),
  ('COc1ccc2ncnc(Nc3ccc(OCc4ccccc4)cc3)c2c1', 0.35),
  ('COc1ccc2ncn(-c3cc(O[C@H](C)c4ccccc4Cl)c(C(N)=O)s3)c2c1', 0.63),
  ('Oc1cccc(-c2nc(-c3ccccc3)[nH]c2-c2ccncc2)c1', 0.81),
  ('Cc1cc(O)cc(C)c1/C=C/c1cncc(C(=O)N(C)C)c1', 0.18),
  ('COc1cc(Nc2nccc(Nc3ccc4c(C)[nH]nc4c3)n2)cc(OC)c1OC', -0.535),
  ('COC(=O)Nc1nc2ccc(S(=O)(=O)c3ccc(NC(=O)Nc4cc(C(F)(F)F)ccc4F)cc3)cc2[nH]1', -0.105),
  ('N#Cc1c(NC(=O)c2cccc3ccccc23)sc2c1CCCN2C(=O)C1CC1', -0.17),
  ('C[C@@H](Oc1cc(-n2cnc3ccc(OCC4CCN(C)CC4)cc32)sc1C(N)=O)c1ccccc1C(F)(F)F', -1.17),
  ('Cc1nn(C)c2cc(N(C)c3ccnc(Nc4cccc(S(N)(=O)=O)c4)n3)ccc12', 0.53);

* * *

Tested on: R275C/beta2Delta
assayMethodText: modulators of BK channel variants, profiling panel, selectivity assay, cell-based, U2OS BacMam, thallium flux, beta subunits (AID 1259406);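 further: initial slope of Thallos dye fluorescence rise after thallium is added; log ratio against the mean of 0.3% DMSO vehicle wells on the same plate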
conditionNotes: at 30 µM
Activity calls are given as the source filed them.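 The calls were made as follows: active = thallium flux through the channel raised or lowered by more than 3 SD from vehicle-only wells, actives on both sides; inactive = the rest.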
Possible outcomes: 1 for active, -1 for inactive

INSERT INTO assay_data (molecule, assignedclass) VALUES
  ('O=C(O)CCCc1ccccc1', -1),
  ('NS(=O)(=O)c1cc2c(cc1C(F)(F)F)NC(Cc1ccccc1)NS2(=O)=O (stereo not given)', -1),
  ('CCCCNc1cc(C(=O)O)cc(S(N)(=O)=O)c1Oc1ccccc1', -1),
  ('Cc1ccc(S(=O)(=O)NC(=O)NN2CCCCCC2)cc1', -1),
  ('OCCN1CCN(CCCN2c3ccccc3Sc3ccc(Cl)cc32)CC1', -1),
  ('C[C@H](CS)C(=O)N1CCC[C@H]1C(=O)O', -1),
  ('COc1ccccc1OCCNCC(O)COc1cccc2[nH]c3ccccc3c12 (stereo not given)', -1),
  ('Nc1nc(N)c2nc(-c3ccccc3)c(N)nc2n1', -1),
  ('C[C@@H](O)[C@H]1C(=O)N2C(C(=O)O)=C(S[C@@H]3CN[C@H](C(=O)N(C)C)C3)[C@H](C)[C@H]12', -1),
  ('CC(C)(C)NCC(O)COc1cccc2c1C[C@H](O)[C@H](O)C2 (stereo not given in full)', -1),
  ('COc1ccc2cc(CCC(C)=O)ccc2c1', 1),
  ('NNCCc1ccccc1', -1),
  ('COCCOC(=O)C1=C(C)NC(C)=C(C(=O)OC(C)C)C1c1cccc([N+](=O)[O-])c1 (stereo not given)', -1),
  ('CCCNCC(O)COc1ccccc1C(=O)CCc1ccccc1 (stereo not given)', 1),
  ('Cc1cn([C@H]2C[C@H](N=[N+]=[N-])[C@@H](CO)O2)c(=O)[nH]c1=O', -1);
